- Study System: ovine COX-2 (Ovis aries, UniProt P79208)
- Construct: gene PTGS2
- Sequence (P79208 17-603): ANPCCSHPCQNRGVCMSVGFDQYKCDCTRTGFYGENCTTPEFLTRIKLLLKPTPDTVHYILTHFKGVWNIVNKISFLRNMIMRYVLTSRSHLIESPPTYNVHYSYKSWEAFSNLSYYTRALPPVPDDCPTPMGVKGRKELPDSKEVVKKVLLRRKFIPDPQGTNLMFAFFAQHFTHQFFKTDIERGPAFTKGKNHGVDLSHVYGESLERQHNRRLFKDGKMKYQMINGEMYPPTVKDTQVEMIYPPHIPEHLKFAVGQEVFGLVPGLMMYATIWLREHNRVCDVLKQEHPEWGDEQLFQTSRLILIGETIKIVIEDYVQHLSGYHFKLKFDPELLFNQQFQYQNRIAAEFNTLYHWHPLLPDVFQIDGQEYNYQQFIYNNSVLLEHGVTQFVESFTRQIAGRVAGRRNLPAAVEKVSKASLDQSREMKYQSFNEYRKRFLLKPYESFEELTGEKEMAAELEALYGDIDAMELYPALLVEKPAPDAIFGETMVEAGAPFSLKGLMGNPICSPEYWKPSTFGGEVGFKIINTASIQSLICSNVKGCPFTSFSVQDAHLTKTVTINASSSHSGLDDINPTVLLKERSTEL
- Test Name: colorimetric peroxidase assay, TMPD oxidation at […] nm (Cayman kit)
- Assay type: biochemical
- Condition Description: read-out: IC50 (μM) vs. COX / COX-1
Outcome Measure: IC50

Compound: COc1ccc2cc1Oc1ccc(cc1)C[C@H]1c3cc(c(OC)cc3CCN1C)Oc1c(OC)c(OC)cc3c1[C@H](C2)N(C)CC3 [compound 1, (+)-tetrandrine]
Measured: > 100 µM

---

- Study System: ovine COX-1 (Ovis aries)
- Construct: gene PTGS1
- Sequence (P05979 25-600): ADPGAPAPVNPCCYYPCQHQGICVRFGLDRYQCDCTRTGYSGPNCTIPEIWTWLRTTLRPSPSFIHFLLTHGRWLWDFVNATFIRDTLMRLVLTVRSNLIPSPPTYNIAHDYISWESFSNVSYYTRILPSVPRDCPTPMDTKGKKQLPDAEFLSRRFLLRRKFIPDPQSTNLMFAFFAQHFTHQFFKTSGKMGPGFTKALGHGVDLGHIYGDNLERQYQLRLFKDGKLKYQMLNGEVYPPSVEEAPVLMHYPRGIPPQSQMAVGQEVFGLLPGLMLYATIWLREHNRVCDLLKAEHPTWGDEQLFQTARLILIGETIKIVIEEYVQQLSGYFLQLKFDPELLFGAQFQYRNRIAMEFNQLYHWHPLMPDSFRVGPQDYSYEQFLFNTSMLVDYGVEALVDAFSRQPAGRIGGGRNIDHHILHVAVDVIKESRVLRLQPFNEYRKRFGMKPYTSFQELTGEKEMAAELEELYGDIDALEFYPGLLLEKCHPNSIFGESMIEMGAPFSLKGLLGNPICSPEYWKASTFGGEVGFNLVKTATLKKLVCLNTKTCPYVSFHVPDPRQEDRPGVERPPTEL
- Test Name: colorimetric peroxidase assay, TMPD oxidation at […] nm (Cayman kit)
- Assay type: biochemical
Outcome Measure: IC50

Compound: COc1ccc2cc1Oc1ccc(cc1)C[C@H]1c3cc(c(OC)cc3CCN1C)Oc1c(OC)c(OC)cc3c1[C@H](C2)N(C)CC3 [compound 1, (+)-tetrandrine]
Outcome Measure: IC50
Measured: > 100 µM
